Data provenance: patent US20230322958A1

Recorded Kd, one value per entry.
measured on: T1, huNotch2-EGF6-10 (human, UniProt Q04721 219-418)
T1 construct: also called human Notch2 EGF6-10
T1 sequence: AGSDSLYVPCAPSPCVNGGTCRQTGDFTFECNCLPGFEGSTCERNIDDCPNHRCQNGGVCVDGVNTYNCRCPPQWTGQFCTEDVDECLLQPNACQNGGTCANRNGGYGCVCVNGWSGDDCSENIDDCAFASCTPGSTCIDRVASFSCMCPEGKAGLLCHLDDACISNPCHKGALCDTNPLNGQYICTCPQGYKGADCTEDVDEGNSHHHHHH
assay details: SPR BIAcore, separate experiment, substantially as for Table 4
Report as a plain number; the unit nM is understood.

Here is how some binders turned out for Kd.
# binder, readout, unit abbreviation, number
data = [
    ("hu.3107.L6H14 (antibody, V domains shown, also called hu.Notch-3107.L6H14) VH: EVQLVQSGAEVKKPGESLKISCKGSGYTFSNYVIHWVRQMPGKGPEWTGYIIPGSGGTKFNEKFKGQATISVDKSSTTAYLQWSSLKASDTAMYYCARDGAGSFTYWGQGTLVTVSS VL: DVVMTQSPDSLAVSLGERATINCRSSQSLVHSDGNTYLHWFQQKPGQPPKLLIYRISNRFSGVPDRFSGSGSGTDFTLTISSLQAEDVAVYYCLQSTHFPDTFGGGTKVEIK", "Kd", "nM", 10),
    ("hu.3107.L1H14 (antibody, V domains shown, also called hu.Notch-3107.L1H14) VH: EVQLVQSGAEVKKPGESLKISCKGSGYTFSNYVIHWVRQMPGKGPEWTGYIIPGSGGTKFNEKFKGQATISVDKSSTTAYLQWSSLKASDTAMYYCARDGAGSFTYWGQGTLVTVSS VL: DVVMTQSPLSLPVTLGQPASISCRSSQSLVHSDGNTYLHWFQQRPGQSPRLLIYRISNRFSGVPDRFSGSGSGTDFTLKISRVEAEDVGVYYCLQSTHFPDTFGGGTKVEIK", "Kd", "nM", 17.5),
]

Below: the item to evaluate.
Query :: So what does the record say about Kd for hu.3107.L1H12 (antibody, V domains shown, also called hu.Notch-3107.L1H12) VH: EVQLVQSGAEVKKPGASVKVSCKASGYTFSNYVIHWVRQAPGQGPEWTGYIIPGSGGTKFNEKFKGRATSTVDTSSTTAYMELSRLRSDDTVVYYCARDGAGSFTYWGQGTLVTVSS VL: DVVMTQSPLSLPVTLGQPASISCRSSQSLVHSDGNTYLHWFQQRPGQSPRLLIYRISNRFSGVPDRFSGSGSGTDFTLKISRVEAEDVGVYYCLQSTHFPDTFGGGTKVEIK ?
Result :: 14.3
